The values you see were collected from patent US5039805A.

- measurement.notes: LD50 in the mouse (acute toxicity)
- condition.description: in vivo, ip, intraperitoneally
value.type: LD50

[
  {
    "molecule": "N=C(N)NCCCCCC(=O)Nc1cccc(C(=O)NCCC(=O)O)c1",
    "value.type": "LD50",
    "result": "> 1000 mg/kg"
  }
]

###

- system: fibrinogen receptor, glycoprotein IIb/IIIa (Homo sapiens, UniProt P05106+P08514)
- Construct: obtained from Triton X-100 extracts of human blood platelets
- Sequence (P08514 32-887 limits assumed): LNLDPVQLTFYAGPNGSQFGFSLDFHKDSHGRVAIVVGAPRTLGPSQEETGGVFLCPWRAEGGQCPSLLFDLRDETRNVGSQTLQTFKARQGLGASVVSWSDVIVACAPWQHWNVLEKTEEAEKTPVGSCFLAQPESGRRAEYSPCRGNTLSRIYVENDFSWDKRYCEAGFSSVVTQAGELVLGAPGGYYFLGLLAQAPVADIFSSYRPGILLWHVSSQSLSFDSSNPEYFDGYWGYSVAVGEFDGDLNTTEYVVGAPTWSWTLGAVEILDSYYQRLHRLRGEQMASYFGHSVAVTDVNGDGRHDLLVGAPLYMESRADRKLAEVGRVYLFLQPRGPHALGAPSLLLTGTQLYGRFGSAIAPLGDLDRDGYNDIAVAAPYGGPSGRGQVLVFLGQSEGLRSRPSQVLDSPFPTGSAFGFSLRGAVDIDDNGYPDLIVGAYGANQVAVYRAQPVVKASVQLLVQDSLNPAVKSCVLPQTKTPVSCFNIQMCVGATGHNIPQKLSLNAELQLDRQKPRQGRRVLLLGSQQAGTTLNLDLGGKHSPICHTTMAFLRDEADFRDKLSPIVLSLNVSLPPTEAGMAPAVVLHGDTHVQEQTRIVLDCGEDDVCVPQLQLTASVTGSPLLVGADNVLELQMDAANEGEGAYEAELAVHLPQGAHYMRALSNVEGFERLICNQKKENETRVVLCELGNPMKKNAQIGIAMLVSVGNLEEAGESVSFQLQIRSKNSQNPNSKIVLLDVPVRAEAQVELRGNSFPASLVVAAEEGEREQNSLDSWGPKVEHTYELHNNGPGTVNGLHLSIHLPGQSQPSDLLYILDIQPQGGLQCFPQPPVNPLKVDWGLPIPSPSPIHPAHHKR
- Sequence (P08514 891-1039 limits assumed): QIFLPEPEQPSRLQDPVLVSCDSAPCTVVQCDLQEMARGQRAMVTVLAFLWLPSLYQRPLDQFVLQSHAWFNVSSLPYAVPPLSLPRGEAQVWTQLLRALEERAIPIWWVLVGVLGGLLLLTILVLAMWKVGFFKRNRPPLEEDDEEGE
- Sequence (P05106 27-788): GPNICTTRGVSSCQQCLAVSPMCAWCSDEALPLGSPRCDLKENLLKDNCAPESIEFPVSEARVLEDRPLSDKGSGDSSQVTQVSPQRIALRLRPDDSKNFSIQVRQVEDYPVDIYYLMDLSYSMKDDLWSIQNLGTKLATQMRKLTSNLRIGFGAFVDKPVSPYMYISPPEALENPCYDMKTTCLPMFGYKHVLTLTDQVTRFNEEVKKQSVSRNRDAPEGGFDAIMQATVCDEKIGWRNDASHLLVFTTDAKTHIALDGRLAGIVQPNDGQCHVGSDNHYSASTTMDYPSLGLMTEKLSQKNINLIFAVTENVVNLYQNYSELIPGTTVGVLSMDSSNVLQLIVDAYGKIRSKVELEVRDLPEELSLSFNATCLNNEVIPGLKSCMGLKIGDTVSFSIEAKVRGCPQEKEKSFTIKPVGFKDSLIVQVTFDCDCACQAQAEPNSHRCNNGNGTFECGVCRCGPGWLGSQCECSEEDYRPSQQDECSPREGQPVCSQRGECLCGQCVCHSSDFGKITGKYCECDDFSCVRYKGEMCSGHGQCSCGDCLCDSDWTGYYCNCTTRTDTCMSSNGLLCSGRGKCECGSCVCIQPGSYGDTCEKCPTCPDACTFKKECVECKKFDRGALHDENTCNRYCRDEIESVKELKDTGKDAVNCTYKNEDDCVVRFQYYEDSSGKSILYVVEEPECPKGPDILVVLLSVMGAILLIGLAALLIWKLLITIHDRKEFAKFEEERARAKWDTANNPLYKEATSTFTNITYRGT
- measurement.notes: inhibition of the binding of fibrinogen to the immobilized fibrinogen receptor (ELISA)
- condition.description: fibrinogen binding to immobilized glycoprotein IIb/IIIa from human blood platelets, read-out: IC50 (inhibition of the binding of fibrinogen to the immobilized receptor by 50%)
Where a SMILES comes first, the peptide text is derived from it. [ ]: non-standard residue; d: D form. The star is where a group is joined. 3Abz = Nc1cccc(C(=O)O)c1; Boc = CC(C)(C)OC(=O)*
Rule: IC50 below 200 nM gives yes (1), anything at or above gives no (0).

[
  {
    "compound": "N=C(N)c1ccc(CC(=O)Nc2cccc(C(=O)NCCC(=O)O)c2)cc1",
    "answer.label": "yes (1)"
  },
  {
    "compound": "COC(=O)[C@H](CC(=O)O)NC(=O)c1cccc(NC(=O)c2ccc(C(=N)N)cc2)c1",
    "answer.label": "yes (1)"
  },
  {
    "compound": "O=C(O)CCNC(=O)c1cccc(NC(=O)CCC2CCNCC2)c1",
    "answer.label": "yes (1)"
  },
  {
    "compound": "N=C(N)c1ccc(C(=O)Nc2cccc(C(=O)N[C@@H](CC(=O)O)C(=O)N[C@@H](Cc3cccc4ccccc34)C(=O)O)c2)cc1",
    "answer.label": "yes (1)"
  },
  {
    "compound": "N=C(N)c1ccc(C(=O)Nc2cc(C(=O)NCCC(=O)O)ccc2O)cc1",
    "answer.label": "yes (1)"
  },
  {
    "compound": "NCCCCC(=O)Nc1ccc(OCc2ccccc2)c(C(=O)NCCC(=O)O)c1",
    "answer.label": "yes (1)"
  },
  {
    "compound": "NCCCCCC(=O)Nc1cccc(C(=O)NCCC(=O)O)c1",
    "answer.label": "no (0)"
  },
  {
    "compound": "N=C(N)c1ccc(C(=O)Nc2cc(C(=O)NCCC(=O)O)ccc2OCc2ccccc2)cc1",
    "answer.label": "yes (1)"
  },
  {
    "compound": "CC(C)(C)OC(=O)N[C@@H](CCCN)C(=O)Nc1cccc(C(=O)NCCC(=O)O)c1",
    "answer.label": "yes (1)"
  },
  {
    "compound": "CC(C)[C@H](NC(=O)[C@H](CC(=O)O)NC(=O)c1cccc(NC(=O)[C@H](CCCN=C(N)N)NC(=O)OC(C)(C)C)c1)C(=O)O [Example 15, [m-(Boc-Arg-NH)benzoyl]-Asp-Val] (Boc-R[3Abz]DV-OH)",
    "answer.label": "yes (1)"
  },
  {
    "compound": "N=C(N)c1ccc(CC(=O)Nc2cccc(C(=O)N[C@@H](CC(=O)O)C(=O)N[C@@H](Cc3ccccc3)C(=O)O)c2)cc1",
    "answer.label": "yes (1)"
  },
  {
    "compound": "N=C(N)NCCCC(=O)Nc1cccc(C(=O)NCCC(=O)O)c1",
    "answer.label": "no (0)"
  },
  {
    "compound": "N=C(N)NCCCCCC(=O)Nc1cccc(C(=O)NCCC(=O)O)c1",
    "answer.label": "no (0)"
  },
  {
    "compound": "NCCCCC(=O)Nc1cccc(C(=O)NC(CC(=O)O)c2ccc3c(c2)CCC3)c1 (racemic)",
    "answer.label": "no (0)"
  },
  {
    "compound": "NCCCCCC(=O)Nc1ccc(Cl)c(C(=O)NCCC(=O)O)c1",
    "answer.label": "no (0)"
  },
  {
    "compound": "N=C(N)c1ccc(C(=O)Nc2ccc(C(=O)NCCC(=O)O)cc2)cc1",
    "answer.label": "yes (1)"
  }
]
